Where do the numbers come from? From a melting point compilation (Tetko et al.; mined from patent text by program, amines drawn as free bases though some values may be those of a salt).

As shown below, each of these molecules has a reported melting point value.

Record excerpt, results attached:
So what does the record say about melting point for CSc1ccc(N)c(C#N)c1 ?
50 to 54 °C

Okay, and Oc1ccc2c(c1)CCCC(c1ccccc1)=C2c1ccc(OCCCCSCCCC(F)(F)C(F)(F)F)cc1 ?
167 °C

Okay, and Fc1ccccc1-c1nc2c(s1)NCCCC2 ?
115 to 116 °C

Okay, and CC(C)Oc1cccc(-c2nc3ncccc3o2)c1 ?
68.5 to 70.5 °C

Okay, and NNC(=O)c1cn2c(nc1=O)CCC2 ?
204 to 206 °C

Okay, and COC(=O)c1cc(OC)c(N=Nc2ccccc2)c(OC)c1 ?
115 to 116 °C

Okay, and CN(CCO)Cn1nc(-c2ccncc2)n(-c2ccccc2)c1=S ?
173 to 174 °C

Okay, and COC1=Cc2ccccc2C(=CC(=O)O)c2ccsc21 ?
163 to 167 °C

Okay, and CCCOc1ccccc1-c1nc2nc(NCCCS(C)(=O)=O)ncc2c(=O)[nH]1 ?
222 to 223 °C

Okay, and Cc1csc(NC(=O)C2=C(O)c3ccccc3N(c3ccccc3)C2)n1 ?
228 to 230 °C

Continuing:
So what does the record say about melting point for CCc1cccc2c1nc(-c1c(F)cccc1F)n2Cc1c(F)cccc1F ?
165 to 166 °C

Okay, and COc1ccc(/C=C/c2ccc3c(Nc4cc(OC)c(Cl)cc4Cl)c(C#N)cnc3c2)cc1 ?
216 to 220 °C

Okay, and CN1CCN(S(=O)(=O)Nc2ccc(-c3nc(-c4ccc(F)cc4)c(-c4ccncc4)[nH]3)cc2)CC1 ?
74 to 76 °C

Okay, and O=C(O)c1ccc2cc(O)c(O)cc2c1 ?
241 to 250 °C

Okay, and CC(CC(=O)O)NC(=O)c1ccccc1 (stereo not drawn) ?
150 to 152 °C

Okay, and Cc1c(Cl)c([N+](=O)[O-])cc([N+](=O)[O-])c1Cl ?
131 to 132 °C

Okay, and CC(C)c1n[nH]c2c(NCc3ccccc3O)ncnc12 ?
214 to 217 °C

Okay, and O=C(O)Cc1ccc(-n2cc(Br)cn2)cc1 ?
187 °C

Okay, and Cc1cc(C)c(CC(=O)NNC(=O)OC(C)(C)C)c(C)c1 ?
138 to 140 °C

Okay, and Cc1c(CO)c(CO)c2n1Cc1ccccc1C2 ?
99 to 101 °C

* * *

As shown below, each of these compounds has a reported melting point value.

So what does the record say about melting point for O=C(O)C(C(=O)O)C1c2ccccc2CCc2ccccc21 ?
183 °C

Okay, and NC(=O)C1=CC=CN(CCc2ccc(Cl)s2)C1Oc1ccc(F)cc1 (stereo not given) ?
78 to 80 °C

Okay, and O=C(NCc1ccccc1)c1ccnc(NC(=O)c2cccc(F)c2)c1 ?
140 to 143 °C

Okay, and CCCCOC(=O)OCN1C(=O)CN(CCN2CC(=O)N(COC(=O)OCCCC)C(=O)C2)CC1=O ?
68 to 71 °C

Okay, and CCOC(=O)C=Cc1csc(-c2ccc(OC)c(C(C)(C)C)c2)c1 ?
119 to 120 °C

Okay, and Cc1n[nH]c2c1C(=O)CC(c1cc(Cl)sc1Cl)C2 (stereo not given) ?
167 to 168 °C

Okay, and COC(=O)c1c([N+](=O)[O-])cccc1S(=O)(=O)N(CCO)CCO ?
92 to 93 °C

Okay, and CCCN(CCCc1c[nH]c2ccc(F)cc12)C1COc2ccc3ncccc3c2C1 (single isomer, unassigned; (+)) ?
106 °C

Okay, and O=C(Nc1ccc(-n2nc(C(F)(F)F)cc2C(F)(F)F)cc1)c1cccc([N+](=O)[O-])c1 ?
203 to 204 °C

Okay, and CC(=O)N(C)c1cc(N)cc(N(C)C(C)=O)c1 ?
179 to 181 °C

Continuing:
So what does the record say about melting point for C(=Cc1nc2ccccc2o1)c1ccccc1 ?
78 to 79 °C

Okay, and Cc1ccc(-c2csc(-c3ccc(C(=O)O)cc3)n2)cc1 ?
289 to 290 °C

Okay, and N#Cc1c(N2CCN(C(=O)c3ccco3)CC2)c2cc(Cl)cnc2n(Cc2ccccc2)c1=O ?
196 °C

Okay, and CC(c1ccc(C(F)(F)F)cc1)N(O)C(N)=O (stereo not given) ?
133 to 135 °C

Okay, and CN(Cc1cccc(-c2ccc(CC3SC(=O)NC3=O)cc2)c1)C(=O)c1cccs1 (stereo not given) ?
160 °C

Okay, and COCc1cc2ccccc2oc1=Nc1ccccc1 ?
64 to 65 °C
